Hey, just so you know, these numbers are from the supplement of paper PMC10567573.

Below, each entry is listed alongside its reported protein stability index.
B1: ZNF8 (parent)
chain: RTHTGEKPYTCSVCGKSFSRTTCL

Variants of: B1
Assay: protein stability index of a GFP-peptide fusion (GPS, HEK-293T) (PSI 1-6); higher = more stable;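 note: lentivirally expressed fusions sorted by FACS into six bins by GFP to DsRed ratio, PSI derived from sequencing read proportions per bin multiplied by bin number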
Conditions: c terminus: a fixed tail appended
Could you respond with only the numeric value?

Answered examples (5):
>>> df
    mut  recorded_measurement
0   G5K                  2.78
1   H3R                  2.15
2  T10M                  2.19
3  C23L                  1.93
4  C11E                  2.48

Requested read-out: protein stability index. Entry: `S17A`
2.48

Another variant: `S19G`
2.35

Another variant: `P8T`
2.86

Another variant: `T22E`
4.28

Another variant: `R20A`
2.55

Another variant: `S17P`
3.07

Another variant: `C23P`
2.63

Another variant: `C23T`
2.1

Another variant: `R1H`
2.85

Another variant: `S12L`
2.22

Another variant: `S12A`
2.96

Another variant: `T21Q`
2.49

Another variant: `S17Y`
2.14

Another variant: `G15L`
1.99

Another variant: `T4D`
2.49

Another variant: `Y9C`
3.77

Another variant: `P8W`
2.9
